Consider the following compounds and their measured IC50 readings.
Tested on: 565726-208-R1-J5-PDC complex spheroids, growth inhibition
Experiment: Anticancer human tumor 565726-208-R1-J5-PDC patient-derived pancreatic adenocarcinoma cell line growth inhibition [RAS]
Details: curve of first compound; second compound 0.003 µM
Form entry: value (nM) — number only.

Look over these answered cases.
Form field IC50, entry C=CC(=O)N1CCN(c2nc(OCC3CCCN3C)nc3c(F)c(-c4nc(N)cc(C)c4C(F)(F)F)c(Cl)cc23)C(C)C1 (centres undefined) + CCn1c(-c2cc(N3CCN(C)CC3)cnc2C(C)OC)c2c3cc(ccc31)-c1csc(n1)CC(NC(=O)C1CC1C)C(=O)N1CCCC(N1)C(=O)OCC(C)(C)C2 : 6.29

Query Nc1ccn(C2OC(CO)C(O)C2(F)F)c(=O)n1 (centres undefined) + CCn1c(-c2cc(N3CCN(C)CC3)cnc2C(C)OC)c2c3cc(ccc31)-c1csc(n1)CC(NC(=O)C1CC1C)C(=O)N1CCCC(N1)C(=O)OCC(C)(C)C2 yields IC50 of 7.2

Shift focus to the following entry.
GET /value?item= CC1(O)CCCC1n1c(=O)c(C(F)F)cc2cnc(NC3CCN(S(C)(=O)=O)CC3)nc21 (centres undefined) + CCn1c(-c2cccnc2C(C)OC)c2c3cc(ccc31)N1CCOC(CC(NC(=O)C(C(C)C)N(C)C(=O)C3(F)CCN(C(=O)C#CC(C)(C)N(C)C)CC3)C(=O)N3CCCC(N3)C(=O)OCC(C)(C)C2)C1 &field=IC50 returns 1740

====

Test system: 565726-208-R1-J5-PDC complex spheroids, growth inhibition
Assay: Anticancer human tumor 565726-208-R1-J5-PDC cell line growth inhibition [RAS];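 note: spheroids exposed to compounds for seven days before readout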;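 for viability, T/C: 100% = DMSO vehicle control viability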
Settings: second compound 1 µM; first compound 0.316 µM; stronger effect = lower value
Excerpt: RAS pathway inhibitors in Combinations in Complex Spheroids A high-throughput screen of multi-cell type tumor spheroids was designed to identify active combinations of RAS pathway inhibitors and targeted small molecules. Complex spheroids include a stromal component modeled by human endothelial cells (HUVEC) and fibroblasts modeled by human mesenchymal stem cells (MSCs). […] Compounds. […] If the clinical Cmax for an agent had not been determined, the highest concentration tested was 10 microM. […]
Strictly below 70% in viability, T/C: TRUE. Otherwise: FALSE.

Worked cases, answers included:
Could you please tell me whether viability, T/C recorded for Nc1ccn(C2OC(CO)C(O)C2(F)F)c(=O)n1 (stereo not given) + C=CC(=O)N1CCN(c2nc(OCC3CCCN3C)nc3c(F)c(-c4nc(N)cc(C)c4C(F)(F)F)c(Cl)cc23)C(C)C1 is less than 70%?
TRUE

Hi there! Is viability, T/C for CC(Nc1ccc2c(c1)OCCn1cc(N3C(=O)OCC3C(F)F)nc1-2)C(N)=O (stereo not given) + C=CC(=O)N1CCN(c2nc(OCC3CCCN3C)nc3c(F)c(-c4nc(N)cc(C)c4C(F)(F)F)c(Cl)cc23)C(C)C1 below 70%, do you know?
FALSE

Please let me know if CC1(O)CCCC1n1c(=O)c(C(F)F)cc2cnc(NC3CCN(S(C)(=O)=O)CC3)nc21 (stereo not given) + C=CC(=O)N1CCN(c2nc(OCC3CCCN3C)nc3c(F)c(-c4nc(N)cc(C)c4C(F)(F)F)c(Cl)cc23)C(C)C1 shows viability, T/C below 70%.
FALSE

Now, please, on to the next compound.
Does CC(C)NCC(C(=O)N1CCN(c2ncnc3c2C(C)CC3O)CC1)c1ccc(Cl)cc1 (stereo not given) + C#Cc1c(F)ccc2cc(O)cc(-c3ncc4c(N5CC6CCC(C5)N6)nc(OCC56CCCN5CC(F)C6)nc4c3F)c12 have viability, T/C strictly under 70%?
FALSE

====

System: 565726-208-R1-J5-PDC complex spheroids, growth inhibition
Test: Anticancer human tumor 565726-208-R1-J5-PDC cell line growth inhibition [RAS];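 note: spheroids exposed to compounds for seven days before readout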;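 for viability, T/C: 100% = DMSO vehicle control viability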
Conditions: compound 0.0316 µM; stronger effect = lower value
measurementName: viability, T/C

Reported viability, T/C ( C[C@@H](NC(=O)c1ncnc(N)c1Cl)c1ncc(C(=O)Nc2cc(C(F)(F)F)c(Cl)cn2)s1 ) = 116% [middle of 4 runs]

// sample CC1(O)CCCC1n1c(=O)c(C(F)F)cc2cnc(NC3CCN(S(C)(=O)=O)CC3)nc21 (centres undefined) , its viability, T/C was 86.8% [middle of 4 runs]

Measured viability, T/C of CC(=O)OC12COC1CC(O)C1(C)C(=O)C(O)C3=C(C)C(OC(=O)C(O)C(NC(=O)OC(C)(C)C)c4ccccc4)CC(O)(C(OC(=O)c4ccccc4)C21)C3(C)C (centres undefined) : 20.4% [middle of 4 runs]

// next item, viability, T/C requested
Reported viability, T/C ( NC1c2ccccc2OC12CCN(c1cnc3c(N4CCCc5ncccc54)n[nH]c3n1)CC2 (centres undefined) ) = 82.2% [middle of 4 runs]

====

Tested on: 565726-208-R1-J5-PDC complex spheroids, growth inhibition
Test: Anticancer human tumor 565726-208-R1-J5-PDC cell line growth inhibition [RAS];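 note: spheroids exposed to compounds for seven days before readout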;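 for viability, T/C: 100% = DMSO vehicle control viability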
Conditions: second compound 0.1 µM; first compound 3.16 µM; stronger effect = lower value
measurementName: viability, T/C (%)
Value expressed in %; do not type the unit.

The compound listed as Cc1nc(N2CCC3(CC2)COC(C)C3N)c(CO)nc1Sc1ccnc(N)c1Cl (stereo not given) + C#Cc1c(F)ccc2cc(O)cc(-c3ncc4c(N5CC6CCC(C5)N6)nc(OCC56CCCN5CC(F)C6)nc4c3F)c12 shows viability, T/C equal to 92.4

The value of viability, T/C measured for the compound CC1(O)CCCC1n1c(=O)c(C(F)F)cc2cnc(NC3CCN(S(C)(=O)=O)CC3)nc21 (stereo not given) + C#Cc1c(F)ccc2cc(O)cc(-c3ncc4c(N5CC6CCC(C5)N6)nc(OCC56CCCN5CC(F)C6)nc4c3F)c12 turned out to be 63.7

Lookup result for CC(Nc1ccc2c(c1)OCCn1cc(N3C(=O)OCC3C(F)F)nc1-2)C(N)=O (stereo not given) + C=CC(=O)N1CCN(c2nc(OCC3CCCN3C)nc3c(F)c(-c4nc(N)cc(C)c4C(F)(F)F)c(Cl)cc23)C(C)C1 ; measured viability, T/C: 62.7

get_value(item= NC1c2ccccc2OC12CCN(c1cnc3c(N4CCCc5ncccc54)n[nH]c3n1)CC2 (stereo not given) + C=CC(=O)N1CCN(c2nc(OCC3CCCN3C)nc3c(F)c(-c4nc(N)cc(C)c4C(F)(F)F)c(Cl)cc23)C(C)C1 , readout=viability, T/C) returns 55

Per the records, this compound ( CC(C)NCC(C(=O)N1CCN(c2ncnc3c2C(C)CC3O)CC1)c1ccc(Cl)cc1 (stereo not given) + C#Cc1c(F)ccc2cc(O)cc(-c3ncc4c(N5CC6CCC(C5)N6)nc(OCC56CCCN5CC(F)C6)nc4c3F)c12 ) has viability, T/C equal to 88

Lab note: CC(C)NCC(C(=O)N1CCN(c2ncnc3c2C(C)CC3O)CC1)c1ccc(Cl)cc1 (stereo not given) + C=CC(=O)N1CCN(c2nc(OCC3CCCN3C)nc3c(F)c(-c4nc(N)cc(C)c4C(F)(F)F)c(Cl)cc23)C(C)C1 gave viability, T/C of 80.6

Briefly, viability, T/C measured for CCC(CC)c1cc(NC2CCC(N)C2)n2nccc2n1 (stereo not given) + C=CC(=O)N1CCN(c2nc(OCC3CCCN3C)nc3c(F)c(-c4nc(N)cc(C)c4C(F)(F)F)c(Cl)cc23)C(C)C1 : 1.59

Entry C[C@@H](NC(=O)c1ncnc(N)c1Cl)c1ncc(C(=O)Nc2cc(C(F)(F)F)c(Cl)cn2)s1 + C#Cc1c(F)ccc2cc(O)cc(-c3ncc4c(N5CC6CCC(C5)N6)nc(OCC56CCCN5CC(F)C6)nc4c3F)c12 — recorded viability, T/C = 116

viability, T/C in this record for CC(Nc1ccc2c(c1)OCCn1cc(N3C(=O)OCC3C(F)F)nc1-2)C(N)=O (stereo not given) + C#Cc1c(F)ccc2cc(O)cc(-c3ncc4c(N5CC6CCC(C5)N6)nc(OCC56CCCN5CC(F)C6)nc4c3F)c12 : 81.2

The measured viability, T/C associated with NC1c2ccccc2OC12CCN(c1cnc3c(N4CCCc5ncccc54)n[nH]c3n1)CC2 (stereo not given) + C#Cc1c(F)ccc2cc(O)cc(-c3ncc4c(N5CC6CCC(C5)N6)nc(OCC56CCCN5CC(F)C6)nc4c3F)c12 reads 64.7

====

Listed here are compounds together with their documented viability, T/C.
System: 565726-208-R1-J5-PDC complex spheroids, growth inhibition
Test: Anticancer human tumor 565726-208-R1-J5-PDC cell line growth inhibition [RAS];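 note: spheroids exposed to compounds for seven days before readout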;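 for viability, T/C: 100% = DMSO vehicle control viability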
Settings: second compound 0.0949 µM; first compound 0.03 µM; stronger effect = lower value
Note: unit % is implicit; provide only the numeric part.

For orientation, consider the following solved cases.
Measured viability, T/C, CCc1c2c(nc3ccc(O)cc13)-c1cc3c(c(=O)n1C2)COC(=O)[C@]3(O)CC + CCn1c(-c2cc(N3CCN(C)CC3)cnc2C(C)OC)c2c3cc(ccc31)-c1csc(n1)CC(NC(=O)C1CC1C)C(=O)N1CCCC(N1)C(=O)OCC(C)(C)C2 : 13.6

# viability, T/C of CCc1c2c(nc3ccc(O)cc13)-c1cc3c(c(=O)n1C2)COC(=O)[C@]3(O)CC + CCn1c(-c2cccnc2C(C)OC)c2c3cc(ccc31)N1CCOC(CC(NC(=O)C(C(C)C)N(C)C(=O)C3(F)CCN(C(=O)C#CC(C)(C)N(C)C)CC3)C(=O)N3CCCC(N3)C(=O)OCC(C)(C)C2)C1 = 11.1

Next:
Note to self: viability, T/C recorded for CC1(C)CCC(Nc2ncc(C(F)(F)F)c(-c3c[nH]c4c(P(C)(C)=O)c(C#N)ccc34)n2)CN1 (centres undefined) + CCn1c(-c2cc(N3CCN(C)CC3)cnc2C(C)OC)c2c3cc(ccc31)-c1csc(n1)CC(NC(=O)C1CC1C)C(=O)N1CCCC(N1)C(=O)OCC(C)(C)C2 was 24

viability, T/C reading for CC1(C)CCC(Nc2ncc(C(F)(F)F)c(-c3c[nH]c4c(P(C)(C)=O)c(C#N)ccc34)n2)CN1 (centres undefined) + CCn1c(-c2cccnc2C(C)OC)c2c3cc(ccc31)N1CCOC(CC(NC(=O)C(C(C)C)N(C)C(=O)C3(F)CCN(C(=O)C#CC(C)(C)N(C)C)CC3)C(=O)N3CCCC(N3)C(=O)OCC(C)(C)C2)C1 : 26.9

Origin of values: PubChem BioAssay AID2060899
